test system: COLO 205; assay: NCI tumour cell line growth inhibition, 48 h
Calls of active or inactive are those of the source. Cut-off read from the data, not from the text of the source: active = GI50 up to about 1.1 µM and inactive = higher.
Result category, one only: active, inactive

COc1ccc2c(CCNS(=O)(=O)c3ccccc3)c(C(C)=O)[nH]c2c1; inactive
Nc1ccc2nc3ccc(N)cc3[n+](-c3ccccc3)c2c1; inactive

Lookup: What did the test return for `CC1(C)OC(C(N)=O)=C(C(N)=O)O1` ?
Found: inactive

----------
Exercise: for every item that follows, state its recorded GI50.
tested on: MDA-MB-435; experiment: NCI tumour cell line growth inhibition, 48 h
Calls of active or inactive are those of the source. Cut-off read from the data, not from the text of the source: active = GI50 up to about 1.1 µM and inactive = higher.

Below, 4 compounds whose answers are already recorded.
COC(=O)[C@@H](N1C(=O)c2ccccc2C1=O)C1(C)CC(Cl)=NO1 (stereo partly specified); > 100 µM (inactive)
CC(C)(C)N(Cc1ccc2c(c1)OCO2)C(=O)/C=C\[S+]([O-])c1ccccc1 (stereo unspecified); 2.12 µM (inactive)
Cc1ccc(NC(=O)/C=C/c2ccccc2)c(C)c1; > 100 µM (inactive)
NCc1nnn(Cc2ccccc2)c1N; > 100 µM (inactive)

Parameter requested: GI50. Apply to each item below.
1. CC1CC(C)(C)CC(OCCN2CCCCC2)(c2ccccc2)C1 (stereo unspecified)
2. O=C1/C(=C/c2ccc([N+](=O)[O-])cc2)CCCc2ccccc21

Found:
11.9 µM (inactive)
> 100 µM (inactive)

Parameter requested: GI50. Apply to each item below.
1. Nc1nc(N)c2nc(CNc3ccc(C(=O)O)cc3)[nH]c2n1
2. Oc1ccc(CCc2cc(O)cc(O)c2)cc1 [DIHYDRORESVERATROL]
3. O=C1NC(=N/c2ccccc2)/C(=N\c2ccccc2)N1c1ccccc1
4. CCN(CC)c1ccc2cc(C(=O)Nc3ccccc3)c(=N)oc2c1
5. CCOC(=O)/C=C\C(C#N)(C#N)/N=C/c1ccsc1
6. NNC(=O)CSc1nnc(CCCCCCCCc2nnc(SCC(=O)NN)o2)o1
7. O=C1OC(c2ccccc2)=N/C1=C\c1ccc(F)cc1
8. CC(C)c1ccc2c(c1)C=C1OC(=O)[C@]3(C)CCC[C@@]2(C)C13 (stereo partly specified)

Found:
["> 100 µM (inactive)", "> 100 µM (inactive)", "14.2 µM (inactive)", "> 100 µM (inactive)", "2.39 µM (inactive)", "> 100 µM (inactive)", "> 100 µM (inactive)", "> 100 µM (inactive)"]

Parameter requested: GI50. Apply to each item below.
1. COc1ccc(-c2nc(-c3cc4ccccc4oc3=O)cs2)cc1
2. COc1ccc2c3c1O[C@H]1C(O)CCC4(O)[C@@H](C2)NCC[C@]314 (stereo partly specified)
3. O[C@@H]1CCC[C@@H]2NC[C@@H](c3ccc4c(c3)OCO4)[C@H]12
4. COc1ccc2c3c1OC1C(OC)(OC)C=C[C@@]4(Br)[C@@H](C2)N(CC2CC2)CC[C@]314 (stereo partly specified)
5. O=C(Oc1c(Br)cc(Br)cc1C(=O)Oc1ccccc1)C(=O)Oc1c(Br)cc(Br)cc1C(=O)Oc1ccccc1
6. C=C(Cl)C(Cl)(CBr)CCC(Cl)C(C)C (stereo unspecified)
7. COc1ccc(/C=N/Nc2nc3ccccc3c(=O)n2-c2ccccc2)cc1
8. CS(=O)(=O)OCCN(CCOS(C)(=O)=O)c1ccc(/C=N/c2ccc(-c3csc(COc4ccccc4)n3)cc2)cc1

Found:
1. > 100 µM (inactive)
2. > 100 µM (inactive)
3. > 100 µM (inactive)
4. 61.2 µM (inactive)
5. 10.1 µM (inactive)
6. 6.98 µM (inactive)
7. > 100 µM (inactive)
8. 12.4 µM (inactive)

Parameter requested: GI50. Apply to each item below.
1. COC(=O)C1(CCCCCBr)CCCCCCCCCCC1=O (stereo unspecified)
2. Cc1ccc2nc(N/N=C/c3ccc(C)s3)cc(C)c2c1
3. O=C1Nc2ccccc2S/C1=C\c1cccc(C(F)(F)F)c1
4. CC(C)N(C(C)C)S(=O)(=O)CC12CCC(C/C1=N\O)C2 (stereo unspecified)
5. O=C1OC(c2ccccc2)=N/C1=C\c1cn[nH]n1
6. N#Cc1c2c(c(N)oc1=O)C(c1ccccc1)CC(=O)N2 (stereo unspecified)
7. COc1c(O)cc2ccnc3c2c1N(C)C=C3

Found:
1: 37.6 µM (inactive); 2: 7.31 µM (inactive); 3: > 100 µM (inactive); 4: > 100 µM (inactive); 5: > 100 µM (inactive); 6: > 100 µM (inactive); 7: > 100 µM (inactive)

----------
system: SR; test: NCI tumour cell line growth inhibition, 48 h
Where a name gives a salt, the structure may show the parent alone. Activity calls are given as the source filed them. Rule as the data show it: active = GI50 up to about 1.1 µM and inactive = higher.
Result category, one only: label 1 = active, label 0 = inactive

CCCCCC(/C=N/Nc1ccccc1)C(O)(C(F)(F)F)C(F)(F)F (configuration not stated); label 0
O=C1c2c(O)cccc2-c2nn(CCNCCO)c3ccc(NCCNCCO)c1c23 [LOSOXANTRONE HYDROCHLORIDE]; label 1
CCOC(=O)C1C[C@H]2CO[C@H](c3ccccc3)N2C1=O (some centres not stated); label 0
O=Cc1c2ccccc2n2ccc3c4ccccc4[nH]c3c12; label 0
COC1=CC(=O)c2c(c(-c3nc(C)cs3)cn2C)C1=O; label 0
COC(=O)C1=C(C(=O)OC)SC(=C(/N=N/c2ccccc2)c2ccccc2)S1; label 0

Lookup: What did the test return for `CCOc1ccc(NC2=CC(=O)C(=O)c3ccccc32)cc1` ?
Found: label 0

----------
tested on: OVCAR-3; assay: NCI tumour cell line growth inhibition, 48 h
Active and inactive are the calls of the source. Cut-off read from the data, not from the text of the source: active = GI50 up to about 1.1 µM and inactive = higher.
Result category, one only: label 1 (active), label 0 (inactive)

CNC(=O)OCc1nccc2c(C)c3[nH]c4ccc(OC)cc4c3cc12; label 0
O[C@@H]1CCC[C@@H]2NC[C@@H](c3ccc4c(c3)OCO4)[C@H]12; label 0
O=C(NNCc1ccco1)c1cc2ccccc2[nH]1; label 0

Attention now turns to another entry.
Lookup: What did the test return for `O=C1c2cscc2C(=O)c2c(OCc3ccccc3)ccc(OCc3ccccc3)c21` ?
Found: label 0

----------
tested on: MDA-MB-231; experiment: NCI tumour cell line growth inhibition, 48 h
Active and inactive are the calls of the source. No stated cut-off is given here; in the data, active = GI50 up to about 1.1 µM and inactive = higher.
Result category, one only: 1 = active, 0 = inactive

CC1(Cc2cc3c(cc2C2(c4ccc([N+](=O)[O-])cc4)OCCO2)OCO3)OCCO1; 0
CN(C)NC(=S)Nc1ccccc1Br; 0
CC1(C)[C@@H]2CC[C@@]1(C)[C@H](O)[C@@H]2SCc1ccccc1; 0
Cc1cc2c(c(S(=O)(=O)c3ccccc3[N+](=O)[O-])c1)NCCC2; 0
O=C1CC(C(=O)N2CCCCC2)n2c(=O)n(-c3ccccc3)c(=O)n2C1 (centres undefined); 0

Attention now turns to another entry.
Lookup: What did the test return for `CCNCCCNc1c2ccccc2nc2ccccc12` ?
Found: 1

----------
system: NCI-H460; assay: NCI tumour cell line growth inhibition, 48 h
Calls of active or inactive are those of the source. No stated cut-off is given here; in the data, active = GI50 up to about 1.1 µM and inactive = higher.
Result category, one only: 1 (yes) (active), 0 (no) (inactive)

Cc1ccc2c(=O)c(C(=O)NNC(=S)NC3CCCCC3)c[nH]c2n1; 0 (no)
O=C(N/N=C(COc1ccccc1Cl)\N=C\c1cccnc1)c1ccncc1; 0 (no)
CCNCCCNc1c2ccccc2nc2ccccc12; 1 (yes)
O=CC(=C(I)I)c1ccccc1; 0 (no)
O=C(O)CN(CC(=O)O)Cc1ccn(-c2cccc(-n3ccc(CN(CC(=O)O)CC(=O)O)n3)n2)n1; 0 (no)
O=[N+]([O-])c1ccc(Nc2cccc3c4cc[nH]c(-c5ccccc5)c-4nc23)c([N+](=O)[O-])c1; 0 (no)
CC(=O)OCC1OC(N2C(=S)N[C@H]([C@@H](O)[C@H](O)[C@H](O)CO)[C@H]2O)C(OC(C)=O)C(OC(C)=O)C1OC(C)=O (some centres undefined); 0 (no)
COc1ccc2cc(C(C)C(=O)N3C(=O)OCC3(C)C)ccc2c1 (centres undefined); 0 (no)

Lookup: What did the test return for `COC(=N)c1ncn(Cc2ccccc2)c1N` ?
Found: 0 (no)

Lookup: What did the test return for CC1C2CC(CC(=O)N2)C1(C)C (centres undefined) ?
Found: 0 (no)

Lookup: What did the test return for CCOC(=O)C(C)NC(=O)N(C)C12CC3CC(CC(C3)C1)C2 (centres undefined) ?
Found: 0 (no)

Lookup: What did the test return for Cc1cccc(NC(=O)CC(=O)N2N=C(N(CCC#N)c3ccc(Cl)cc3)CC2c2ccccc2)c1 (centres undefined) ?
Found: 0 (no)

Lookup: What did the test return for `N#C/C(=C/NC(=S)NCc1ccccc1)C(N)=O` ?
Found: 0 (no)

Lookup: What did the test return for COC(=O)C(=O)C(CC(=O)Nc1cc(Cl)ccc1Cl)C(=O)OC (centres undefined) ?
Found: 0 (no)

----------
system: UACC-257; assay: NCI tumour cell line growth inhibition, 48 h
The source made the active and inactive calls. Cut-off read from the data, not from the text of the source: active = GI50 up to about 1.1 µM and inactive = higher.
Result category, one only: active, inactive

NC(=S)N/N=C1\NC(=O)/C(=C/c2ccc3c(c2)OCO3)S1; inactive

Lookup: What did the test return for Nc1cc2c(c3ccccc13)C(CCl)CN2C(=O)c1cc2cc(NC(=O)c3cc4ccccc4o3)ccc2[nH]1 (configuration not stated) ?
Found: active

Lookup: What did the test return for `O=C(O)CN(CC(=O)O)Cc1ccn(-c2cccc(-n3ccc(CN(CC(=O)O)CC(=O)O)n3)n2)n1` ?
Found: inactive

Lookup: What did the test return for `NNC(=O)Cn1c2ccc(Br)cc2c2nc3ccccc3nc21` ?
Found: inactive

Lookup: What did the test return for `COc1ccc(S(=O)(=O)c2ccccc2[N+](=O)[O-])cc1` ?
Found: inactive

Lookup: What did the test return for O=C1CC(c2ccccc2Cl)Oc2ccccc21 (configuration not stated) ?
Found: inactive

Lookup: What did the test return for O=C(O)C1[C@@H](C(=O)O)C1(Br)CBr (some centres not stated) ?
Found: inactive

Lookup: What did the test return for `N#Cc1c2c(c(Cl)n3c1nc1ccccc13)CCCC2` ?
Found: inactive

Lookup: What did the test return for `COc1cc(/C=C/c2ccccn2)cc(OC)c1OC` ?
Found: inactive

Lookup: What did the test return for COC(=O)C1=C(c2cc(OC)c(OC)c(OC)c2)OC(c2cc(OC)c(OC)c(OC)c2)C1 (configuration not stated) ?
Found: inactive

Lookup: What did the test return for `Cc1cc(S(=O)(=O)N=C2N(Cc3ccccc3)CCN2Cc2ccccc2)c(S)cc1Cl` ?
Found: inactive

Lookup: What did the test return for `N#C/C(=C/NC(=S)NCc1ccccc1)C(N)=O` ?
Found: inactive
